target or test system: SaOS-2 dox-inducible full-length luciferase, luminescence counterscreen
method notes: luminescence decrease from intact luciferase reporter – cell-based, SaOS-2, dox-inducible, counter-screen for Mdm2/MdmX interaction inhibitor project, dose response (AID 504609);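 active = IC50 under a set limit, which marks the compound as nonspecific in this counterscreen; inactive = the rest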
Return exactly one item of TRUE for active, FALSE for inactive

For orientation, consider the following solved cases.
compound	target or test system	answer label
CCN(CC)S(=O)(=O)c1ccc(NC(=O)c2cccnc2Cl)c(NC(=O)c2cccnc2Cl)c1	SaOS-2 dox-inducible full-length luciferase, luminescence counterscreen	TRUE
COc1ccc2c(c1)C1(Nc3ccccc3-c3nc4ccccc4n31)C(=O)N2C (stereo not given)	SaOS-2 dox-inducible full-length luciferase, luminescence counterscreen	TRUE
Cn1nc([N+](=O)[O-])nc1Sc1nnc(-c2ccccc2)o1	SaOS-2 dox-inducible full-length luciferase, luminescence counterscreen	TRUE
CCOC(=O)/C=C/C(=O)OCC(=O)NC(c1ccccc1)c1ccccc1	SaOS-2 dox-inducible full-length luciferase, luminescence counterscreen	TRUE
O=C(/C=C/c1c(F)cccc1Cl)c1ccc(O)cc1	SaOS-2 dox-inducible full-length luciferase, luminescence counterscreen	TRUE
CC1(C)C(=O)Nc2ccccc2N1C(=O)Cn1ncc(Cl)c(Cl)c1=O	SaOS-2 dox-inducible full-length luciferase, luminescence counterscreen	TRUE
COc1ccc(-c2cc3c(=O)n(CC(=O)NCCCN4CCC(N5CCCCC5)CC4)nc(C)n3n2)cc1	SaOS-2 dox-inducible full-length luciferase, luminescence counterscreen	TRUE
C/C(=N\Nc1cc(C)nc(-c2ccccc2O)n1)c1ccccc1O	SaOS-2 dox-inducible full-length luciferase, luminescence counterscreen	TRUE

Let's switch to this compound now.
I'd appreciate the recorded outcome for Cc1cccn2c(=O)c3cc(C(=O)NCCc4ccccc4)c(=N)n(Cc4ccco4)c3nc12 from this test.
TRUE

###

target or test system: SaOS-2 dox-inducible full-length luciferase, luminescence counterscreen
method notes: luminescence decrease from intact luciferase reporter – cell-based, SaOS-2, dox-inducible, counter-screen for Mdm2/MdmX interaction inhibitor project, dose response (AID 504609)
Active and inactive are the calls of the source.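 Rule for the calls: active = IC50 under a set limit, which marks the compound as nonspecific in this counterscreen; inactive = the rest.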
Return exactly one item of Y for active, N for inactive

For orientation, consider the following solved cases.
O=[N+]([O-])c1ccccc1S(=O)(=O)Nc1cccc2cccnc12 Y
CC(=O)c1ccc(-c2ccc(C(=O)Nc3nc(-c4ccccn4)cs3)o2)cc1 Y
CCN1C/C(=C/c2ccc(OC)c(O)c2)C(=O)/C(=C/c2ccc(OC)c(O)c2)C1 Y
O=C(CN1CCCc2ccccc21)N/N=C/c1c(O)ccc2ccccc12 Y
CC(C)c1cccc(O)c(=O)c1 Y
O=c1oc2ccccc2cc1-c1cn(-c2ccccc2)c(=S)[nH]1 Y
COc1cc(-c2nc(-c3ccc(NC(=O)c4ccc5c(c4)OCO5)cc3)no2)cc(OC)c1OC Y
COCCn1c(C)cc(C2=NNC(=Nc3ccccc3F)SC2)c1C Y

I'd appreciate the recorded outcome for Cc1nc(NC2=NCN(CCCN3CCOCC3)CN2)nc2c(C)cccc12 from this test.
Y

I'd appreciate the recorded outcome for CCOc1cc(N2CCOCC2)c(OCC)cc1NC(=O)COc1cccc2cccnc12 from this test.
Y

I'd appreciate the recorded outcome for CCOC(=O)c1ccc(Nc2nc(N)c3cc(OC)c(OC)cc3n2)cc1 from this test.
N
